test: Pharmacokinetics after intravenous and subcutaneous administration in cynomolgus monkeys; type: in vivo; conditions: cynomolgus monkey, plasma, sc; Subcutaneous Gel, 10.7 mg/kg, n = 3
measured_metric: AUC(0-inf) (µg·h/mL)
Respond numerically; units are µg·h/mL and should not be typed.

[in] Give its AUC(0-inf) value. Item: N=C(N)c1ccc2nc(-c3cc(CC(=O)N[C@@H](CC(=O)O)C(=O)O)cc(-c4cc(S(N)(=O)=O)ccc4O)c3O)[nH]c2c1 [compound of Formula I]
[out] 172

###

test: Pharmacokinetics after intravenous and subcutaneous administration in cynomolgus monkeys; assay type: in vivo; conditions: cynomolgus monkey, plasma; Intravenous Solution, 1.76 mg/kg, n = 4; read-out: AUC 0-48
measured_metric: AUC(0-t) (ng·h/mL)
Numbers only here, please. The scale is ng·h/mL.

[in] Using the record for N=C(N)c1ccc2nc(-c3cc(CC(=O)N[C@@H](CC(=O)O)C(=O)O)cc(-c4cc(S(N)(=O)=O)ccc4O)c3O)[nH]c2c1 , report its AUC(0-t).
[out] 21200
